- conditionDescription: in isopropanol, 293.15 K
readoutKind: solubility (mole fraction)
Please reply with the number alone, leaving off any unit.

Value of solubility (mole fraction) reported for the molecule N#CC(c1ccc(Cl)cc1)c1c(Cl)cc(-n2ncc(=O)[nH]c2=O)cc1Cl (stereo unspecified) is 0.00129

====

- conditionDescription: in toluene, 318.15 K
readoutKind: solubility (mole fraction)
Please reply with the number alone, leaving off any unit.

Value of solubility (mole fraction) reported for the molecule N#CC(c1ccc(Cl)cc1)c1c(Cl)cc(-n2ncc(=O)[nH]c2=O)cc1Cl (stereo unspecified) is 0.00211

====

- conditionDescription: in toluene, 298.15 K
readoutKind: solubility (mole fraction)
Please reply with the number alone, leaving off any unit.

Value of solubility (mole fraction) reported for the compound N#CC(c1ccc(Cl)cc1)c1c(Cl)cc(-n2ncc(=O)[nH]c2=O)cc1Cl (stereo unspecified) is 0.000692
